Readings of Imax(%), blocking activity for the listed binders
Target: human CCR8 (human, UniProt P51685 1-355)
Sequence (P51685 whole entry): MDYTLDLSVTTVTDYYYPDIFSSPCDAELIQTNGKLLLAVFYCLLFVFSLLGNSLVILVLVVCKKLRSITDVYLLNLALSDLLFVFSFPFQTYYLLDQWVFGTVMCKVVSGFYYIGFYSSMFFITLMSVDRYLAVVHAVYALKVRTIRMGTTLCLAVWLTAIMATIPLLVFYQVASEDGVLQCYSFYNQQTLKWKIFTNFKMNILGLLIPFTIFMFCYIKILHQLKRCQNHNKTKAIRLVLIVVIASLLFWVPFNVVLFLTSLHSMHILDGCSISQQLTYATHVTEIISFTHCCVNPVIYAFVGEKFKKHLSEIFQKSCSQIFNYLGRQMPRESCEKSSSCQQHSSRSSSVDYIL
Test: cell-based or functional assay
Give just the number in %; leave the unit off.

Answered examples (3):
{"binder": "hu305-5W-3a-AF (antibody, V domains shown, also called afucosylated hu305-5W-3a) VH: QVQLKQSGPGLVKPSETLSLTCTVSGFSLAVYGVHWVRQPPGKGLEWLGVIWRGGTTDYNPSLKSRLTFSKDSSKSQVSLKLSSVTAADTAVYYCAKNRVTTVVAPNFYAMDYWGQGTLVTVSS VL: DIVMTQSPDSLAVSLGERATINCKSSQSLLYSGNQKNYLAWYQQKPGQPPKLLIYWASTRKSGVPDRFSGSGSGTDFTLTISSLKAEDVAVYYCQQYYTYPLTFGQGTRLEIK", "reported": 87.3}
{"binder": "Ch305-AF (antibody, V domains shown, human IgG1/kappa; also called afucosylated Ch305) VH: QVQMKQSGPSLVQPSQSLSITCTVSGFSLTSYGVHWVRQSPGKGLEWLGVIWRGGTTDYNAAFMSRLSFTKDSSKSQVFFKLNSLQADDTAIYYCAKNRVTTVVAPNFYAMDYWGQGTSVTVSS VL: DIVMTQSPSSLAVSVGEKVTMSCKSSQSLLYSGNQKNYLAWYQQKPGQSPKLLIYWASTRKSGVPDRLTGSGSGTDFTLTISSVKAEDLAAYYCQQYYTYPLTFGAGTRLEIK", "reported": 87.8}
{"binder": "hu305-5P-3a-AF (antibody, V domains shown) VH: QVQLKQSGPGLVKPSETLSLTCTVSGFSLTSYGVHWVRQPPGKGLEWLGVIWRGGTTDYNPSLKSRVTFSKDSSKNQVSLKLSSVTAADTAVYYCAKNRVTTVVAPNFYAMDYWGQGTLVTVSS VL: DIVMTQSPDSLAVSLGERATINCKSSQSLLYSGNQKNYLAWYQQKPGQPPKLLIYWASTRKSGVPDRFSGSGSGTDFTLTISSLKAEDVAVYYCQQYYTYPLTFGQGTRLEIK", "reported": 77.1}

Read the next record carefully.
QUERY: Would you kindly share the measured Imax(%), blocking activity for hu305-4F-2m-AF (antibody, V domains shown) VH: QVQLQESGPGLVKPSQTLSLTCTVSGFSLAVYGVHWVRQPPGKGLEWLGVIWRGGTTDYNPSLKSRLTFSKDSSKSQVSLKLSSVTAADTAVYYCAKNRVTTVVAPNFYAMDYWGQGTLVTVSS VL: DIVMTQSPDSLAVSLGERVTINCKSSQSLLYSGNQKNYLAWYQQKPGQSPKLLIYWASTRKSGVPDRFSGSGSGTDFTLTISSLQAEDVAAYYCQQYYTYPLTFGQGTRLEIK ?
RESULT: 75.6
